I'd appreciate it if you could supply pIC50 values for the items below.
experimental_target: T1, Human CXCR2 (human, UniProt P25025 1-360)
T1 construct: Some cell lines carry an N-terminal 3xHA tag; also called hCXCR2; huCXCR2
T1 sequence: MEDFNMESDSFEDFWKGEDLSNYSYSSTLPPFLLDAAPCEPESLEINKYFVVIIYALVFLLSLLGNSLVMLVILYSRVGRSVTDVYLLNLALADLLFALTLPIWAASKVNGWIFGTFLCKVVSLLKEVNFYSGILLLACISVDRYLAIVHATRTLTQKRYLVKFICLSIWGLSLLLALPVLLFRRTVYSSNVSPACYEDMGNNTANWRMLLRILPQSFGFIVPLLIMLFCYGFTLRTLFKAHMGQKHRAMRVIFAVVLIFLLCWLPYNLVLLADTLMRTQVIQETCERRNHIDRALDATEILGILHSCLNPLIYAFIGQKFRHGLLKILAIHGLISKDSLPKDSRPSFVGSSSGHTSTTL
protocol_summary: FACS competition vs 3 nM FMAT-Blue Gro-α
Method: Purified monovalent anti-CXCR2Nanobodies were titrated against 3 nM FMAT-Blue-labeled Gro-α in the FACS ligand competition assay on human and cynomolgus CXCR2 (Table 10). On human CXCR2, blocking potencies range between double digit nM and sub-nM whereas on cynomolgus CXCR2, they range between single and double digit nM.
One number for each entry, as −log10 of the molar value.

Kindly note the recorded pIC50 for 163D2 (VHH, Tested as periplasmic extract (pAX50) and as purified His6-tagged protein (pAX100); also called 163D02; not shown: C-terminal c-myc tag and His6 tag coded by the vector) VHH: EVQLVESGGGLVQAGGSLRLSCAASGRTFSDYAMGWFRQAPGKEREFVAAITWNGGRVFYTASVKGRFTISRDNAKNTMYLQMNSLKPEDTAVYYCAADKDRRTDYLGHPVAYWGQGTQVTVSS , which is 8.16

Go through the list and state pIC50 for each entry.
1. 137B7 (VHH, Tested as periplasmic extract (pAX50) and as purified His6-tagged protein (pAX100); also called 137B07; not shown: C-terminal c-myc tag and His6 tag coded by the vector) VHH: EVQLVESGGGLVQPGGSVRLSCVASGIIFRLSALGWTRQGPGKAREWVAGINSDGTTNYADPVKGRFTISRDNAKNTIYLHMDMLKPEDTAVYYCASGKYRGQGTQVTVSS
2. 127D1 (VHH, Tested as periplasmic extract (pAX50) and as purified His6-tagged protein (pAX100); also called 127D01; not shown: C-terminal c-myc tag and His6 tag coded by the vector) VHH: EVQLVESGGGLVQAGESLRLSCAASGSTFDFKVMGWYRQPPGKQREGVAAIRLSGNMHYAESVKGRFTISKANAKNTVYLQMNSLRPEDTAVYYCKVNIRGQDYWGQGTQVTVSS

1. 8.95
2. 9.51

The reported measurements were obtained from patent US20130330346A1.
